assayed-system: GST-CBP(1081-1197) bromodomain (Homo sapiens (Human))
Sequence (Q92793 1081-1197): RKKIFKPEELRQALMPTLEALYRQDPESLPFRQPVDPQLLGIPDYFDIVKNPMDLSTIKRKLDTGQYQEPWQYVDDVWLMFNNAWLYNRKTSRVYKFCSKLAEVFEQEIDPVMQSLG
assay-explanation: CBP AlphaScreen Assay
condition-set: binding to biotin-H4(1-21) Ac-K5/8/12/16
pIC50: −log10 of the molar value.
quantity-name: pIC50

{"compound": "CN1Cc2c(-c3c(F)ccc4cc(C5CCOCC5)ncc34)nc(C3CCOCC3)n2CC1=O", "pIC50": 6.66}

A. CC1C(=O)N(C)Cc2c(-c3cccc4nc(-c5cnn(C)c5)c(C(F)F)cc34)nc(C3CCN(CC(F)F)CC3)n21 (stereo not shown)
B. Cc1ccn(-c2cc3cccc(-c4nc(C5CC5)n5c4CN(C)C(=O)C5C)c3cn2)n1 (stereo not shown)
Given A and B , report the one with the higher recorded pIC50. To answer, give the label that identifies your chosen option.
B
(B: 8.52, A: 7.39)
